// peptide exchange yield lookup, one value per entry
# system.tested: HLA-A*24 (human)
# measurement.description: UV peptide exchange ELISA

- binder: "VYVGAVNRI"
  peptide exchange yield: "> 75%"
- binder: "KSSVIASLLF"
  peptide exchange yield: "50 to 75%"
- binder: "QYQNVLTLW"
  peptide exchange yield: "> 75%"
- binder: "VYDQYFITL"
  peptide exchange yield: "> 75%"
- binder: "STIRGELFFF"
  peptide exchange yield: "10 to 20%"

Query binder follows.
Task: Could you share which peptide exchange yield value was measured for KYLEESVWL ?
Output: > 75%
